# measuredOn: AP-1 (Homo sapiens, UniProt P01100+P05412)
# Construct: (Histidine)6; Strep-tag; made in house; host or cells: bacterial cells harboring pFos-Jun
# Sequence (P01100 whole entry): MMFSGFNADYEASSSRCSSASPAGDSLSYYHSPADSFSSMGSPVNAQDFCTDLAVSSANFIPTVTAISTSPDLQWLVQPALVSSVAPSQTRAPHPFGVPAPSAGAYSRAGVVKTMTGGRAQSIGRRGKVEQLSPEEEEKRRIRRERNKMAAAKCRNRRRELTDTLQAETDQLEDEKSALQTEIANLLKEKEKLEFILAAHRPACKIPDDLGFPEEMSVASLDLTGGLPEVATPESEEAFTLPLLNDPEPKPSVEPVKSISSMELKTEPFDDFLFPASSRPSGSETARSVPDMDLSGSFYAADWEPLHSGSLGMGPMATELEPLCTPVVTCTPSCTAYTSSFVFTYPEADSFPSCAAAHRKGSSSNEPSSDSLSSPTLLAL
# Sequence (P05412 whole entry): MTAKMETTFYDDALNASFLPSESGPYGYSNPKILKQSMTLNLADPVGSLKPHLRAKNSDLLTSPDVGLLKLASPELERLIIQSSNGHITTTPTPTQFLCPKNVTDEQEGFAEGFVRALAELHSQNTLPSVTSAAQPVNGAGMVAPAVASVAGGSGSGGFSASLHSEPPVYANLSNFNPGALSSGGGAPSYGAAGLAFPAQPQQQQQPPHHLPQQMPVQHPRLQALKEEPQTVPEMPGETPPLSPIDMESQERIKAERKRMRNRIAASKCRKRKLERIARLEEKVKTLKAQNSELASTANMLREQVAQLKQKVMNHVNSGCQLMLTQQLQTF
# assayDetails: AP-1 inhibition assay (ELISA), AP-1 binding to AP-1 recognition sequence
# assayConditions: ELISA, AP-1 binding activity to AP-1 recognition sequence; read-out: IC50 (AP-1 inhibition assay)
pIC50: −log10 of the molar value.
Let's look at some molecules and their measured pIC50.
observedProperty: pIC50

{"molecule": "COC(=O)C(Cc1c[nH]c2ccccc12)NC(=O)C(Cc1ccc(O)c(O)c1)OC(=O)C=Cc1ccc(O)c(O)c1 (stereo not shown)", "observedProperty": "pIC50", "experimentalValue": 4.36}
{"molecule": "O=C(C=Cc1ccc(O)c(O)c1)OC(Cc1ccc(O)c(O)c1)C(=O)NC(Cc1c[nH]c2ccccc12)C(=O)O (stereo not shown)", "observedProperty": "pIC50", "experimentalValue": 4.50}
{"molecule": "COC(=O)C(Cc1ccc(O)c(O)c1)NC(=O)/C=C/c1ccc(O)c(O)c1 (stereo not shown)", "observedProperty": "pIC50", "experimentalValue": 4.41}
{"molecule": "O=C(/C=C/c1cc(O)c(O)cc1[N+](=O)[O-])OC(Cc1cc(O)c(O)cc1[N+](=O)[O-])C(=O)O (stereo not shown)", "observedProperty": "pIC50", "experimentalValue": 4.67}
{"molecule": "O=C(OC(Cc1ccc(O)c(O)c1)C(=O)O)C1=Cc2ccc(O)c(O)c2C(C(=O)OC(Cc2ccc(O)c(O)c2)C(=O)O)C1c1ccc(O)c(O)c1 (stereo not shown)", "observedProperty": "pIC50", "experimentalValue": 5.85}
{"molecule": "COC(=O)C(Cc1ccc(O)c(O)c1)NC(=O)C(Cc1ccc(O)c(O)c1)NC(=O)C=Cc1ccc(O)c(O)c1 (stereo not shown)", "observedProperty": "pIC50", "experimentalValue": 5.10}
{"molecule": "O=C(O)CC(NC(=O)C(Cc1ccc(O)c(O)c1)OC(=O)C=Cc1ccc(O)c(O)c1)C(=O)O (stereo not shown)", "observedProperty": "pIC50", "experimentalValue": 4.46}
{"molecule": "O=C(O)/C(=C\\c1ccc(O)c(O)c1)C(c1ccc(O)c(O)c1)C(O)C(=O)O (single isomer, unassigned)", "observedProperty": "pIC50", "experimentalValue": 5.37}
{"molecule": "O=C(/C=C/c1ccc(O)c(O)c1)N[C@@H](Cc1ccc(O)c(O)c1)C(=O)O", "observedProperty": "pIC50", "experimentalValue": 5.04}
{"molecule": "CCOC(=O)[C@H](Cc1ccc(O)c(O)c1)NC(=O)/C=C/c1ccc(O)c(O)c1", "observedProperty": "pIC50", "experimentalValue": 4.49}
{"molecule": "CCOC(=O)C(Cc1ccc(O)c(O)c1)NC(=O)[C@H](Cc1ccc(O)c(O)c1)OC(=O)/C=C/c1ccc(O)c(O)c1 (stereo partly shown)", "observedProperty": "pIC50", "experimentalValue": 5.92}
{"molecule": "CCOC(=O)C(Cc1ccc(O)c(O)c1)OC(=O)/C=C/c1ccc(O)c(O)c1 (stereo not shown)", "observedProperty": "pIC50", "experimentalValue": 5.25}
{"molecule": "O=C(C=Cc1ccc(O)c(O)c1)NC(Cc1ccc(O)c(O)c1)C(=O)NC(Cc1ccc(O)c(O)c1)C(=O)O (stereo not shown)", "observedProperty": "pIC50", "experimentalValue": 5.46}
{"molecule": "O=C(/C=C/c1ccc(O)c(O)c1)NCCc1ccc(O)c(O)c1", "observedProperty": "pIC50", "experimentalValue": 4.89}
{"molecule": "O=C(/C=C/c1ccc(O)c(O)c1)O[C@H](Cc1ccc(O)c(O)c1)C(=O)O", "observedProperty": "pIC50", "experimentalValue": 5.00}
{"molecule": "COC(=O)C(Cc1ccc(O)c(O)c1)NC(=O)C(Cc1cc(O)c(O)cc1[N+](=O)[O-])OC(=O)C=Cc1ccc(O)c(O)c1 (stereo not shown)", "observedProperty": "pIC50", "experimentalValue": 4.67}
